target: Glucose transporter (Leishmania mexicana); assay: ST_JUDE_LEISH: Cytotoxicity at 2uM final concentration against transgenic Leishmania Mexicana promastigotes LmGT2 that are glucose transport deficient and complemented with the L. Mexicana glucose transporter 2. Activity is measured by DNA content using SYBR green in vitro; type: functional
result type: inhibition (%)

>  <compound>
CC(=O)Nc1ccc(CN2CCC(CNC(=O)c3cc(-c4cccc(C(F)(F)F)c4)cs3)C2)cc1 (stereo not given)

>  <result type>
inhibition

>  <unit tag>
%

>  <value reported>
-5.57

$$$$
>  <compound>
Cc1[nH]c(C)c(-c2ccc(-c3ccc4c(c3)OCO4)nc2)c(=O)c1Br

>  <result type>
inhibition

>  <unit tag>
%

>  <value reported>
0.07

$$$$
>  <compound>
CCNc1cc(C(=O)N[C@@H](Cc2ccco2)[C@H](O)CNC2CCCCC2)cc(N2CCCCS2(=O)=O)c1

>  <result type>
inhibition

>  <unit tag>
%

>  <value reported>
2.15

$$$$
>  <compound>
COc1ccc(CNCc2ccc(-c3ccc(-c4nc5cccc(C)c5[nH]4)cc3)cc2)cc1

>  <result type>
inhibition

>  <unit tag>
%

>  <value reported>
10.3

$$$$
>  <compound>
N#Cc1c(-c2ccccc2)cn2c1[nH]c(=O)c1ccccc12

>  <result type>
inhibition

>  <unit tag>
%

>  <value reported>
1.89

$$$$
